# runDescription: Quantitative highthroughput screen to assess conditional lethalithy of NOMO1 cells grown in RPMI1640 with untreated serum (RPMI+s) (AID 1963876); also: nearly all actives have a fitted effect of over 35% in size
# particulars: NOMO1 AML cells in RPMI+serum, CellTiter-Glo viability, 48 h; series mostly up to 45.8 µM
Records with an inconclusive call do not appear. Activity calls are given as the source filed them. Calls follow the shape of the dose curve; as a rule, active = well fitted cell-killing curve with a large enough effect; inconclusive = small, poorly fitted or top-dose-only effect; inactive = flat fitted curve, though single readings scatter.
One label from this list, please: active, inactive

Input: Which outcome did this test record for the compound `Cn1cnc(=N)c2[nH]cnc21` ?
Output: active

Input: Which outcome did this test record for the compound `Cc1cnc(Nc2ccc(OCCN3CCCC3)cc2)nc1Nc1cccc(S(=O)(=O)NC(C)(C)C)c1` ?
Output: inactive

Input: Which outcome did this test record for the compound `N=c1nc(N2CCCCC2)cc(N)n1O` ?
Output: inactive

Input: Which outcome did this test record for the compound `CN1C[C@H]2c3ccccc3Oc3ccc(Cl)cc3[C@@H]2C1` ?
Output: inactive

Input: Which outcome did this test record for the compound `Cc1nc(NC(=O)N2CCC[C@@H]2C(N)=O)sc1-c1csc(C(C)(C)C)n1` ?
Output: active

Input: Which outcome did this test record for the compound `CNC[C@@H](O)[C@@H](O)[C@H](O)[C@H](O)CO` ?
Output: inactive

Input: Which outcome did this test record for the compound `Cc1cc(-c2ncc(CC(=O)Nc3ccc(-c4cnccn4)cn3)cc2C)ccn1` ?
Output: inactive

Input: Which outcome did this test record for the compound `C[C@H]1[C@H](NC(=O)C(=NOC(C)(C)C(=O)O)c2csc(N)n2)C(=O)N1S(=O)(=O)O` ?
Output: inactive

Input: Which outcome did this test record for the compound `O=C(Nc1ccc(F)c(C(F)(F)F)c1)Nc1nnc(-c2ccncc2)s1` ?
Output: inactive

Input: Which outcome did this test record for the compound `CC(C)c1ccc(Cn2ccc3c4c(N)nc(NC5CC5)nc4ccc32)cc1` ?
Output: active

Input: Which outcome did this test record for the compound `COc1ccc(C=CC(=O)Nc2ccccc2C(=O)O)cc1OC` ?
Output: inactive

Input: Which outcome did this test record for the compound `c1ccc(CNc2nc(N3CCOc4ccccc43)nc3c2CCCC3)cc1` ?
Output: inactive

Input: Which outcome did this test record for the compound `Oc1ccc(-c2nc(-c3ccc(F)cc3)c(-c3ccncc3)[nH]2)cc1` ?
Output: active

Input: Which outcome did this test record for the compound `CCN(CC)CCNC(=O)c1c(C)[nH]c(C=C2C(=O)Nc3ccc(F)cc32)c1C` ?
Output: active

* * *

# measuredTarget: Cytochrome P450 3A7 (Homo sapiens) (UniProt P24462)
# Sequence (P24462 whole entry, looked up): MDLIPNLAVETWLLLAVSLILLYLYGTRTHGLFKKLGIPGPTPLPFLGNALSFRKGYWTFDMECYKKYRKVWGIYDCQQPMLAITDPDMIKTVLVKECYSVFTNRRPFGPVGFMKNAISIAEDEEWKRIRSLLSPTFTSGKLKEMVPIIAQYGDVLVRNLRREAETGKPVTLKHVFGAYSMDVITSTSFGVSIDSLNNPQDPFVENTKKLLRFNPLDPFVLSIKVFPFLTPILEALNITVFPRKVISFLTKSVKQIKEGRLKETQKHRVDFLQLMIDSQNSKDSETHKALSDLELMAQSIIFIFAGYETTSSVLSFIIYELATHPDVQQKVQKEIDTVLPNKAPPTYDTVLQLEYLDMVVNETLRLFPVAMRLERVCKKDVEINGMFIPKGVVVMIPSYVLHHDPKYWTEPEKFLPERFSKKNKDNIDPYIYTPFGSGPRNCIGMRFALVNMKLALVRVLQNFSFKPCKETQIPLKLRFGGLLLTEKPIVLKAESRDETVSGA
# runDescription: Cytochrome P450 family 3 subfamily A member 7 (CYP3A7) small molecule antagonists: luciferase biochemical qHTS assay (AID 1963596); also: nearly all actives have a fitted effect of over 40% in size
# particulars: P450-Glo CYP3A7 enzyme luminescence, 1 h; series mostly up to 57.4 µM
Records with an inconclusive call do not appear. Calls of active or inactive are those of the source. The call rests on the fitted dose curve; in most records, active means well fitted inhibition curve with a large enough effect; inconclusive means small, poorly fitted or top-dose-only effect; inactive means no such curve, though single readings can be large or run the other way.
One label from this list, please: active, inactive

Input: Which outcome did this test record for the molecule `C1N2CN3CN1CN(C2)C3` ?
Output: inactive

Input: Which outcome did this test record for the molecule `Cn1c(=O)c2c(ncn2CC(=O)O)n(C)c1=O` ?
Output: inactive

Input: Which outcome did this test record for the molecule `O=S(=O)(Cc1ccccc1)Nc1ccc(-c2ccc3c(cnn3-c3ccc(F)cc3)c2)c(C(F)(F)F)c1` ?
Output: active

Input: Which outcome did this test record for the molecule `Cc1ncc(C[n+]2csc(CCO)c2C)c(N)n1` ?
Output: inactive

Input: Which outcome did this test record for the molecule CC(C)NCC(O)COc1ccc(CCOCC2CC2)cc1 (stereo unspecified) ?
Output: inactive

Input: Which outcome did this test record for the molecule `Cc1cn(C[C@H](N)C(=O)O)c(=O)n(Cc2ccsc2C(=O)O)c1=O` ?
Output: inactive
